test: chemical genetic growth profiling, strain panel (AID 1159580);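 note: tested at 20 µM; growth read once vehicle control cultures reached saturation at 30 °C; 1 = growth at the plate median or of vehicle wells; lower values mean less growth of the strain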; conditions: S. cerevisiae deletion strains, growth OD, locus YLR262C, strain YPT6, stronger effect = lower value
Among all 5,500 compounds or so, about 2,000 (36%) were called active. Another 18% or so got no clear call; they are omitted. The list shows a part of the results.
Binarize normalized growth at 1; below is YES, at or above is NO.

- O=C(O)/C=C/C(=O)Nc1ccc(-n2nc(C(F)(F)F)cc2C(F)(F)F)cc1: NO
- Cc1cc(=O)n2[nH]cc(C#N)c2n1: NO
- CC12CCC3C4CCC(=O)C=C4CCC3C1CCC2=O (stereo not given): YES
- Cc1ccc(-c2cc(C(F)(F)F)nn2-c2ccc(S(N)(=O)=O)cc2)cc1: YES
- C#C[C@]1(O)CCC2C3CCC4=CC(=O)CC[C@@H]4C3CC[C@@]21C (stereo not given in full): YES
- COc1cccc(OC)c1OCCNCC1COc2ccccc2O1 (stereo not given): NO
- CCC(C)C(=O)O[C@H]1[C@H](O)C2C(CN3CC(C)CCC3[C@@]2(C)O)C2C[C@]34O[C@]5(O)C(OC(=O)C(C)(O)CC)CC[C@@]3(C)C5C(OC(C)=O)[C@@H](OC(C)=O)C4[C@@]21O (stereo not given in full): NO
- OC(CCN1CCCCC1)(c1ccccc1)C1CCCCC1 (stereo not given): NO
- Cc1noc(C)c1-c1nc(-c2cc(C(F)(F)F)cc(C(F)(F)F)c2)no1: NO

====

Each item that follows carries a reported normalized growth.
assay: chemical genetic growth profiling, strain panel (AID 1159580);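 note: tested at 20 µM; growth read once vehicle control cultures reached saturation at 30 °C; 1 = growth at the plate median or of vehicle wells; lower values mean less growth of the strain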; details: S. cerevisiae deletion strains, growth OD, locus YNL322C, strain KRE1, stronger effect = lower value
In all, about 5,500 compounds went through this assay and about 2,000 (36%) were called active. Not shown: some 18% with an inconclusive outcome. Some of the results follow. Where a SMILES comes first, the peptide text is derived from it. The star is where a group is joined. For = O=C*
endpoint label: normalized growth

* O=c1oc2cc(O)ccc2s1 | 0.99
* C/C=C1\[C@H]2C=C(C)C[C@]1(N)c1ccc(=O)[nH]c1C2 | 1.01
* O=C(COc1ccc2c(c1)OCO2)N1CCN(c2ncc(C(F)(F)F)cc2Cl)CC1 | 0.987
* Cc1cc(C)c(NC(=O)C[C@H](CC(=O)O)c2cccc3ccccc23)c(C(=O)N2CCC3(CCCC3)CC2)c1 | 0.99
* Cc1noc(C)c1C(=O)N1CCN(c2ncc(C(F)(F)F)cc2Cl)CC1 | 0.989
* N#CC(NCc1ccccc1)c1ccc(Cl)c(Cl)c1 (stereo unspecified) | 1.01
* O=C(O)C1CCCN(CCC=C(c2ccccc2)c2ccccc2)C1 (stereo unspecified) | 1.05
* CSCCC(NC=O)C(=O)NC(Cc1ccccc1)C(=O)O (stereo not drawn) (For-Met-Phe-OH; configuration not given here) | 1.01
* CNCc1ccccc1 | 0.994
* O=C(N/N=C\c1c(O)ccc2ccccc12)N/N=C\c1c(O)ccc2ccccc12 | 1.02
* c1cnc(N2CCN(Cc3ccc4c(c3)OCO4)CC2)nc1 | 0.979

====

experiment: chemical genetic growth profiling, strain panel (AID 1159580);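 note: tested at 20 µM; growth read once vehicle control cultures reached saturation at 30 °C; 1 = growth at the plate median or of vehicle wells; lower values mean less growth of the strain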; conditions: S. cerevisiae deletion strains, growth OD, locus YLR418C, strain cdc73
Among all 5,500 compounds or so, about 2,000 (36%) were called active. Inconclusive results (about 18%) are left out. Rule as the data show it: active = normalized growth mostly below about 0.91 (no sharp cut-off); inconclusive = no clear call, values can overlap the other calls; inactive = mostly above about 0.92. Some of the results follow.
Outcome codes: Y for active, N for inactive

* C/C=C(/C)C(=O)O[C@@H]1[C@H](OC(C)=O)[C@@]2(CO)C(CC1(C)C)C1=CCC3[C@@]4(C)CC[C@H](O[C@@H]5O[C@H](C(=O)O)[C@@H](O[C@@H]6O[C@H](CO)[C@@H](O)[C@H](O)[C@H]6O)[C@H](O)[C@H]5O[C@@H]5O[C@H](CO)[C@@H](O)[C@H](O)[C@H]5O)[C@](C)(CO)C4CC[C@@]3(C)[C@]1(C)C[C@H]2O (stereo partly drawn) | N
* C[C@@H]1CC[C@]2(C(=O)O)CC[C@]3(C)C(=CCC4[C@@]5(C)CC[C@H](O)C(C)(C)C5CC[C@]43C)C2[C@H]1C (stereo partly drawn) | N
* CC1(C)CC[C@@]2(C(=O)O)C(C1)C1=CCC3[C@@]4(C)CC[C@H](O)C(C)(C)C4CC[C@@]3(C)[C@]1(C)C[C@@H]2O (stereo partly drawn) | Y
